- Tested on: 922993-354-T-J3-PDC complex spheroids, viability, % test/control
- protocol_notes: Anticancer human tumor 922993-354-T-J3-PDC patient-derived endometrial carcinoma cell line growth inhibition [CLK]
- condition_summary: second compound 1 µM; first compound 1 µM; stronger effect = lower value
measure_name: viability, T/C (%)
Give the value, in units of %, as a plain number.

// fetch 922993-354-T-J3-PDC complex spheroids, viability, % test/control viability, T/C for C=CC(=O)N1CCN(c2nc(=O)n(-c3c(C)ccnc3C(C)C)c3nc(-c4c(O)cccc4F)c(F)cc23)C(C)C1 (stereo not given) + CN1CCN(c2cc(C(=O)Nc3cc4cc(-c5cnn(C)c5)ccc4cn3)ccn2)CC1
0.93

// repeat for CCCS(=O)(=O)Nc1ccc(F)c(C(=O)c2c[nH]c3ncc(-c4ccc(Cl)cc4)cc23)c1F + CNC(=O)c1ccc(Nc2nc(OC3CCCC3)c3c(-c4ccc5nc(C)oc5c4)c[nH]c3n2)c(OC)c1 and report
35.4

// repeat for C=C(F)C(=O)N1CCN(c2nc(OCC3CCCN3C)nc3c2CCN(c2cccc4cccc(Cl)c24)C3)CC1CC#N (stereo not given) + CN1CCN(c2cc(C(=O)Nc3cc4cc(-c5cnn(C)c5)ccc4cn3)ccn2)CC1 and report
0.12

// repeat for Nc1ccccc1NC(=O)c1ccc(CNC(=O)OCc2cccnc2)cc1 + CN1CCN(c2cc(C(=O)Nc3cc4cc(-c5cnn(C)c5)ccc4cn3)ccn2)CC1 and report
0.09

// repeat for CCc1c2c(nc3ccc(O)cc13)-c1cc3c(c(=O)n1C2)COC(=O)[C@]3(O)CC + CN1CCN(c2cc(C(=O)Nc3cc4cc(-c5cnn(C)c5)ccc4cn3)ccn2)CC1 and report
0.33

----------
Assign viability, T/C to each entry below.
- System: 922993-354-T-J3-PDC complex spheroids, viability, % test/control
- protocol_notes: Anticancer human tumor 922993-354-T-J3-PDC cell line growth inhibition [CLK];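 further: spheroids exposed to the agents for 7 days before readout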
- condition_summary: second compound 10 µM; first compound 0.316 µM; stronger effect = lower value
- Source text: A high-throughput screen of multi-cell type tumor spheroids was designed to identify active combinations of […] and targeted small molecules. Complex spheroids include a stromal component modeled by human endothelial cells (HUVEC) and fibroblasts modeled by human mesenchymal stem cells (MSCs). […] Compounds. […] If the clinical Cmax for an agent had not been determined, the highest concentration tested was 10 microM. […]
Give the value, in units of %, as a plain number.

Entry Nc1ccn(C2OC(CO)C(O)C2(F)F)c(=O)n1 (stereo not drawn) + CN1CCN(c2cc(C(=O)Nc3cc4cc(-c5cnn(C)c5)ccc4cn3)ccn2)CC1 has what viability, T/C?
1.82

// repeat for COc1c(OCCCN2CCOCC2)ccc2c3n(c(=NC(=O)c4cnc(N)nc4)nc12)CCN3 + CN1CCN(c2cc(C(=O)Nc3cc4cc(-c5cnn(C)c5)ccc4cn3)ccn2)CC1 and report
3.12

// repeat for C=C(F)C(=O)N1CCN(c2nc(OCC3CCCN3C)nc3c2CCN(c2cccc4cccc(Cl)c24)C3)CC1CC#N (stereo not drawn) + CNC(=O)c1ccc(Nc2nc(OC3CCCC3)c3c(-c4ccc5nc(C)oc5c4)c[nH]c3n2)c(OC)c1 and report
30.9

----------
Assign viability, T/C to each entry below.
- Tested on: 922993-354-T-J3-PDC complex spheroids, viability, % test/control
- protocol_notes: Anticancer human tumor 922993-354-T-J3-PDC cell line growth inhibition [CLK];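 further: spheroids exposed to the agents for 7 days before readout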
- condition_summary: second compound 0.316 µM; first compound 0.316 µM; stronger effect = lower value
- From the text: A high-throughput screen of multi-cell type tumor spheroids was designed to identify active combinations of […] and targeted small molecules. Complex spheroids include a stromal component modeled by human endothelial cells (HUVEC) and fibroblasts modeled by human mesenchymal stem cells (MSCs). […] Compounds. […] If the clinical Cmax for an agent had not been determined, the highest concentration tested was 10 microM. […]

Entry CCN1CCN(Cc2ccc(Nc3ncc(F)c(-c4cc(F)c5nc(C)n(C(C)C)c5c4)n3)nc2)CC1 + CNC(=O)c1ccc(Nc2nc(OC3CCCC3)c3c(-c4ccc5nc(C)oc5c4)c[nH]c3n2)c(OC)c1 has what viability, T/C?
45.5%

// repeat for CC1(C)CCC(CN2CCN(c3ccc(C(=O)NS(=O)(=O)c4ccc(NCC5CCOCC5)c([N+](=O)[O-])c4)c(Oc4cnc5[nH]ccc5c4)c3)CC2)=C(c2ccc(Cl)cc2)C1 + CN1CCN(c2cc(C(=O)Nc3cc4cc(-c5cnn(C)c5)ccc4cn3)ccn2)CC1 and report
39.8%

----------
- Test system: 922993-354-T-J3-PDC complex spheroids, viability, % test/control
- protocol_notes: Anticancer human tumor 922993-354-T-J3-PDC cell line growth inhibition [CLK];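 further: spheroids exposed to the agents for 7 days before readout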
- condition_summary: curve of first compound; second compound 0.0316 µM
measure_name: IC50 (nM)
Give the value, in units of nM, as a plain number.

Entry COc1cccc2c1C(=O)c1c(O)c3c(c(O)c1C2=O)CC(O)(C(=O)CO)CC3OC1CC(N)C(O)C(C)O1 (stereo not given) + CN1CCN(c2cc(C(=O)Nc3cc4cc(-c5cnn(C)c5)ccc4cn3)ccn2)CC1 has what IC50?
2210

// repeat for CC(C)CC(NC(=O)C(Cc1ccccc1)NC(=O)c1cnccn1)B(O)O (stereo not given) + CN1CCN(c2cc(C(=O)Nc3cc4cc(-c5cnn(C)c5)ccc4cn3)ccn2)CC1 and report
6.51

// repeat for C=C(F)C(=O)N1CCN(c2nc(OCC3CCCN3C)nc3c2CCN(c2cccc4cccc(Cl)c24)C3)CC1CC#N (stereo not given) + CNC(=O)c1ccc(Nc2nc(OC3CCCC3)c3c(-c4ccc5nc(C)oc5c4)c[nH]c3n2)c(OC)c1 and report
5650

// repeat for CCc1c2c(nc3ccc(O)cc13)-c1cc3c(c(=O)n1C2)COC(=O)[C@]3(O)CC + CNC(=O)c1ccc(Nc2nc(OC3CCCC3)c3c(-c4ccc5nc(C)oc5c4)c[nH]c3n2)c(OC)c1 and report
19.5

// repeat for CCc1c2c(nc3ccc(O)cc13)-c1cc3c(c(=O)n1C2)COC(=O)[C@]3(O)CC + CN1CCN(c2cc(C(=O)Nc3cc4cc(-c5cnn(C)c5)ccc4cn3)ccn2)CC1 and report
16.6

// repeat for CC(=O)O[C@H]1C(=O)[C@@]2(C)[C@H]([C@H](OC(=O)c3ccccc3)[C@]3(O)C[C@H](OC(=O)[C@H](O)[C@@H](NC(=O)c4ccccc4)c4ccccc4)C(C)=C1C3(C)C)[C@]1(OC(C)=O)CO[C@@H]1C[C@@H]2O + CN1CCN(c2cc(C(=O)Nc3cc4cc(-c5cnn(C)c5)ccc4cn3)ccn2)CC1 and report
2880

// repeat for O=c1[nH]cc(F)c(=O)[nH]1 + CNC(=O)c1ccc(Nc2nc(OC3CCCC3)c3c(-c4ccc5nc(C)oc5c4)c[nH]c3n2)c(OC)c1 and report
7510

// repeat for O=c1[nH]cc(F)c(=O)[nH]1 + CN1CCN(c2cc(C(=O)Nc3cc4cc(-c5cnn(C)c5)ccc4cn3)ccn2)CC1 and report
7950

----------
Assign pIC50 to each entry below.
- Tested on: 922993-354-T-J3-PDC complex spheroids, viability, % test/control
- protocol_notes: Anticancer human tumor 922993-354-T-J3-PDC cell line growth inhibition [CLK];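 further: spheroids exposed to the agents for 7 days before readout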
- condition_summary: curve of first compound; second compound 0.0316 µM
Worth noting: pIC50 values are minus log10 of concentrations stated in mol/L.

Entry CC(Nc1ccc2c(c1)OCCn1cc(N3C(=O)OCC3C(F)F)nc1-2)C(N)=O (stereo not given) + CNC(=O)c1ccc(Nc2nc(OC3CCCC3)c3c(-c4ccc5nc(C)oc5c4)c[nH]c3n2)c(OC)c1 has what pIC50?
5.42

// repeat for COc1cccc2c1C(=O)c1c(O)c3c(c(O)c1C2=O)CC(O)(C(=O)CO)CC3OC1CC(N)C(O)C(C)O1 (stereo not given) + CNC(=O)c1ccc(Nc2nc(OC3CCCC3)c3c(-c4ccc5nc(C)oc5c4)c[nH]c3n2)c(OC)c1 and report
5.50

// repeat for COc1c(OCCCN2CCOCC2)ccc2c3n(c(=NC(=O)c4cnc(N)nc4)nc12)CCN3 + CN1CCN(c2cc(C(=O)Nc3cc4cc(-c5cnn(C)c5)ccc4cn3)ccn2)CC1 and report
6.83

----------
- System: 922993-354-T-J3-PDC complex spheroids, viability, % test/control
- protocol_notes: Anticancer human tumor 922993-354-T-J3-PDC cell line growth inhibition [CLK];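 further: spheroids exposed to the agents for 7 days before readout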
- condition_summary: second compound 0.0316 µM; first compound 3.16 µM; stronger effect = lower value
measure_name: viability, T/C (%)
Give the value, in units of %, as a plain number.

Entry C=CC(=O)N1CCN(c2nc(=O)n(-c3c(C)ccnc3C(C)C)c3nc(-c4c(O)cccc4F)c(F)cc23)C(C)C1 (centres undefined) + CNC(=O)c1ccc(Nc2nc(OC3CCCC3)c3c(-c4ccc5nc(C)oc5c4)c[nH]c3n2)c(OC)c1 has what viability, T/C?
106

// repeat for CC(Nc1ccc2c(c1)OCCn1cc(N3C(=O)OCC3C(F)F)nc1-2)C(N)=O (centres undefined) + CNC(=O)c1ccc(Nc2nc(OC3CCCC3)c3c(-c4ccc5nc(C)oc5c4)c[nH]c3n2)c(OC)c1 and report
57

// repeat for CC(=O)O[C@H]1C(=O)[C@@]2(C)[C@H]([C@H](OC(=O)c3ccccc3)[C@]3(O)C[C@H](OC(=O)[C@H](O)[C@@H](NC(=O)c4ccccc4)c4ccccc4)C(C)=C1C3(C)C)[C@]1(OC(C)=O)CO[C@@H]1C[C@@H]2O + CNC(=O)c1ccc(Nc2nc(OC3CCCC3)c3c(-c4ccc5nc(C)oc5c4)c[nH]c3n2)c(OC)c1 and report
69.3

// repeat for CC1(C)CCC(CN2CCN(c3ccc(C(=O)NS(=O)(=O)c4ccc(NCC5CCOCC5)c([N+](=O)[O-])c4)c(Oc4cnc5[nH]ccc5c4)c3)CC2)=C(c2ccc(Cl)cc2)C1 + CNC(=O)c1ccc(Nc2nc(OC3CCCC3)c3c(-c4ccc5nc(C)oc5c4)c[nH]c3n2)c(OC)c1 and report
108

// repeat for CC(CO)NC(=O)c1cc(-c2ccc(Cl)cc2)nn(-c2cnn(C)c2)c1=O (centres undefined) + CNC(=O)c1ccc(Nc2nc(OC3CCCC3)c3c(-c4ccc5nc(C)oc5c4)c[nH]c3n2)c(OC)c1 and report
102

// repeat for O=c1[nH]cc(F)c(=O)[nH]1 + CNC(=O)c1ccc(Nc2nc(OC3CCCC3)c3c(-c4ccc5nc(C)oc5c4)c[nH]c3n2)c(OC)c1 and report
75.5

// repeat for CCCS(=O)(=O)Nc1ccc(F)c(C(=O)c2c[nH]c3ncc(-c4ccc(Cl)cc4)cc23)c1F + CN1CCN(c2cc(C(=O)Nc3cc4cc(-c5cnn(C)c5)ccc4cn3)ccn2)CC1 and report
96.6

// repeat for Nc1ccn(C2OC(CO)C(O)C2(F)F)c(=O)n1 (centres undefined) + CNC(=O)c1ccc(Nc2nc(OC3CCCC3)c3c(-c4ccc5nc(C)oc5c4)c[nH]c3n2)c(OC)c1 and report
15.5

// repeat for Nc1ccccc1NC(=O)c1ccc(CNC(=O)OCc2cccnc2)cc1 + CNC(=O)c1ccc(Nc2nc(OC3CCCC3)c3c(-c4ccc5nc(C)oc5c4)c[nH]c3n2)c(OC)c1 and report
65.1

// repeat for O=C(c1cc(Cc2n[nH]c(=O)c3ccccc23)ccc1F)N1CCN(C(=O)C2CC2)CC1 + CNC(=O)c1ccc(Nc2nc(OC3CCCC3)c3c(-c4ccc5nc(C)oc5c4)c[nH]c3n2)c(OC)c1 and report
110

// repeat for COc1cccc2c1C(=O)c1c(O)c3c(c(O)c1C2=O)CC(O)(C(=O)CO)CC3OC1CC(N)C(O)C(C)O1 (centres undefined) + CN1CCN(c2cc(C(=O)Nc3cc4cc(-c5cnn(C)c5)ccc4cn3)ccn2)CC1 and report
45.2

// repeat for Nc1ccn(C2OC(CO)C(O)C2(F)F)c(=O)n1 (centres undefined) + CN1CCN(c2cc(C(=O)Nc3cc4cc(-c5cnn(C)c5)ccc4cn3)ccn2)CC1 and report
16.6

// repeat for C=C(F)C(=O)N1CCN(c2nc(OCC3CCCN3C)nc3c2CCN(c2cccc4cccc(Cl)c24)C3)CC1CC#N (centres undefined) + CN1CCN(c2cc(C(=O)Nc3cc4cc(-c5cnn(C)c5)ccc4cn3)ccn2)CC1 and report
94

// repeat for C#Cc1c(F)ccc2cc(O)cc(-c3ncc4c(N5CC6CCC(C5)N6)nc(OCC56CCCN5CC(F)C6)nc4c3F)c12 (centres undefined) + CNC(=O)c1ccc(Nc2nc(OC3CCCC3)c3c(-c4ccc5nc(C)oc5c4)c[nH]c3n2)c(OC)c1 and report
115

// repeat for CC(=O)O[C@H]1C(=O)[C@@]2(C)[C@H]([C@H](OC(=O)c3ccccc3)[C@]3(O)C[C@H](OC(=O)[C@H](O)[C@@H](NC(=O)c4ccccc4)c4ccccc4)C(C)=C1C3(C)C)[C@]1(OC(C)=O)CO[C@@H]1C[C@@H]2O + CN1CCN(c2cc(C(=O)Nc3cc4cc(-c5cnn(C)c5)ccc4cn3)ccn2)CC1 and report
43.5

// repeat for COC1C=CCC(C)C(C)S(=O)(=O)NC(=O)c2ccc3c(c2)N(CC2CCC21)CC1(CCCc2cc(Cl)ccc21)CO3 (centres undefined) + CN1CCN(c2cc(C(=O)Nc3cc4cc(-c5cnn(C)c5)ccc4cn3)ccn2)CC1 and report
84.9

// repeat for O=C(c1cc(Cc2n[nH]c(=O)c3ccccc23)ccc1F)N1CCN(C(=O)C2CC2)CC1 + CN1CCN(c2cc(C(=O)Nc3cc4cc(-c5cnn(C)c5)ccc4cn3)ccn2)CC1 and report
93.5

// repeat for COC1C=CCC(C)C(C)S(=O)(=O)NC(=O)c2ccc3c(c2)N(CC2CCC21)CC1(CCCc2cc(Cl)ccc21)CO3 (centres undefined) + CNC(=O)c1ccc(Nc2nc(OC3CCCC3)c3c(-c4ccc5nc(C)oc5c4)c[nH]c3n2)c(OC)c1 and report
90.4

// repeat for CC1COCCN1c1cc(C2(S(C)(=N)=O)CC2)nc(-c2ccnc3[nH]ccc23)n1 (centres undefined) + CN1CCN(c2cc(C(=O)Nc3cc4cc(-c5cnn(C)c5)ccc4cn3)ccn2)CC1 and report
117
